- protocol text: HepG2 liver cancer cell viability effects, profiling panel, resazurin fluorescence, 24 h, PK04 Diversity Set (AID 1172); also: test concentration not given here
- assay context: higher = more signal
quantity kind: z-score
Please respond with just the number, no unit label.

Q: Given `COc1ccc(CCNC(=O)[C@@]2(Sc3ccc(C)cc3)CC(=O)N(C3CCCCC3)[C@@H]2c2ccc(CO)cc2I)cc1` , state its recorded z-score.
A: 0.594

Q: Request the reported z-score associated with `COCCOC(=O)N1C(=O)[C@@]2(c3cc(C#CC4(O)CCCCCC4)ccc31)[C@H](c1ccc(O)cc1)N1[C@H](c3ccccc3)[C@H](c3ccccc3)OC(=O)[C@H]1[C@@H]2C(=O)Nc1nc2ccccc2s1`
A: -0.181

Q: I'd like to know its z-score. The compound in question is `NCCCCCNC(=O)[C@@H]1C[C@@H]2C(=O)N[C@@H](Cc3ccccc3)C(=O)N2[C@@H]1c1cccc(OCCO)c1`
A: -0.837

* * *

- Tested on: Human papillomavirus type 1a E7 protein (residues 1-88)
- protocol text: HPV1a E7 small-molecule binders, primary screen, biochemical, small-molecule microarray, residues 1-88, 635 nm (AID 1129)
- assay context: small-molecule microarray binding, fluorescence 635 nm; higher = more signal
Class True: composite z-score at least 0.7. Class False: composite z-score below 0.7.

Q: Confirm if composite z-score reported for the compound `CC(=O)NCCCC[C@@H]1NC(=O)[C@@H]2C[C@H](C(=O)NCCCCN(C)C)[C@H](c3cccc(OCCO)c3)N2C1=O` is 0.7 or above.
A: False

Q: Does composite z-score meet or surpass 0.7 for `COCCOC(=O)N1C(=O)[C@@]2(c3cc(C#Cc4ccc(OC)cc4)ccc31)[C@H](c1ccccc1OCCO)N1[C@H](c3ccccc3)[C@H](c3ccccc3)OC(=O)[C@H]1[C@@H]2C(=O)N1CCN(c2ncccn2)CC1` ?
A: True

Q: Has `C=C(COC)/C(=C/C[C@@H](OC(C)=O)c1ccc(CO)o1)c1cnc2ccccc2c1` a recorded composite z-score greater than or equal to 0.7?
A: True

Q: Is composite z-score for COc1cc2c(cc1O)C(C1CC1)N(Cc1cc3c(cc1Br)OCO3)CC2 (configuration not stated) at or above 0.7?
A: False

Q: Say whether `COc1ccc(C(=O)Nc2ccc(CN3C(=O)[C@@]4(O[C@@H](CCO)[C@H]([Si](C)(C)c5ccc(OC)cc5)[C@H]4C)c4ccccc43)cc2)cc1` shows composite z-score of 0.7 or more.
A: True

Q: Quick check, composite z-score >= 0.7? O=C1OCCC/C=C\[C@H]2OC34C=CCN(c5ccc6ccccc6c5)C(=O)[C@H]3N(CCCCCCO)C(=O)[C@@H]4C12 (some centres not stated)
A: False

Q: Is the recorded value of composite z-score equal to or greater than 0.7 for this compound? `CCCC=C(CCC)[C@@H](NC(=O)Oc1ccc(F)cc1)c1ccc(C(=O)OC)cc1`
A: True

Q: # bool: composite z-score of CCCCCN1CC=CC23O[C@@H]4/C=C\CCCOC(=O)C4[C@H]2C(=O)N(CCCO)[C@@H]3C1=O (some centres not stated) >= 0.7
A: True

Q: Dear colleague, could you confirm whether `COc1ccc([Si](C)(C)[C@@H]2[C@@H](CC(=O)N3Cc4ccccc4C[C@H]3CO)O[C@]3(C(=O)N(C)c4c(Br)cc(C)cc43)[C@H]2C)cc1` has composite z-score at or above 0.7?
A: True

Q: Does `C[C@@]1([C@@H](NC(=O)c2ccccc2)c2ccc(-c3ccccc3)cc2)C[C@H]1C1CCCCC1` have a reported composite z-score of at least 0.7?
A: False

Q: Has `O=C(NCC(F)(F)F)[C@@H]1c2ccccc2C(=O)N(C2CCCCC2)[C@H]1c1ccc(CO)cc1` a recorded composite z-score greater than or equal to 0.7?
A: False

* * *

- protocol text: fission yeast growth modulation, primary screen, strain 972, OD600, 24 h, no modulator (AID 1090);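 also: basal condition with compound alone and no growth modifier present; test concentration not given here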
- assay context: S. pombe 972 growth, higher = more signal, called active from +8 up or from −8 down
Activity calls are given as the source filed them.
Please go through the items and note down their z-score.

Q: What measured z-score goes with `O=C1O[C@H](c2ccccc2)[C@H](c2ccccc2)N2[C@H]1[C@@H](C(=O)O)[C@]1(C(=O)Nc3ccc(C#CCCO)cc31)[C@H]2c1ccc(O)cc1` ?
A: -0.228 (inactive)

Q: Fill blank: measured z-score of the compound CCN(CC)c1ccc(N2CC=CC34O[C@@H]5/C=C\CCCOC(=O)C5[C@H]3C(=O)N(CCO)[C@@H]4C2=O)cc1 (stereo not given in full) is ____.
A: -1.11 (inactive)

Q: Param item = `O=C1O[C@H](c2ccccc2)[C@H](c2ccccc2)N2[C@H]1[C@@H](C(=O)Nc1nc3ccccc3s1)[C@]1(C(=O)Nc3ccc(C#CC4(O)CCCCCC4)cc31)[C@H]2c1ccc(OCCO)cc1` ; retrieve measured z-score.
A: 1.76 (inactive)

Q: Item C#CCN(Cc1ccccc1Br)C(/C=C/c1ccccc1)CO (stereo not given) has what recorded z-score?
A: -19.4 (active)

Q: # get_value(readout='z-score', item= `C=CCNC(=O)[C@H]1[C@@H]2C(=O)O[C@@H](c3ccccc3)[C@@H](c3ccccc3)N2[C@@H](c2ccc(OCCO)cc2)[C@]12C(=O)N(C(=O)OCCOC)c1ccccc12` )
A: 0.0313 (inactive)

* * *

- system: Carbonic anhydrase 2 (Homo sapiens) (UniProt P00918)
- protocol text: CAII small-molecule binders, profiling panel, biochemical, small-molecule microarray, Alexa647-labelled CAII (AID 1122)
- assay context: CAII-A647 binding fluorescence, higher = more signal
quantity kind: composite z-score
Answer with a number only.

Q: Look at this compound and give its reported composite z-score. `CCCCC(=C=CC[C@@H](O)c1ccccc1OCCO)CCO`
A: 0.726

Q: Report composite z-score for O=C1NC(=O)C2C1C=CC(C(O)C(c1ccccc1)c1ccccc1)N2Nc1ccc(Cl)cc1Cl (stereo not given) please.
A: 0.584

Q: # query: composite z-score of entry `C=CCNC(=O)[C@H]1[C@@H]2C(=O)O[C@@H](c3ccccc3)[C@@H](c3ccccc3)N2[C@@H](c2ccc(OCCO)cc2)[C@]12C(=O)N(C(=O)OCCOC)c1ccccc12`
A: 0.381

Q: Quick one: composite z-score of `CC(C)(C)OC(=O)CC[C@@]1(C(N)=O)N=C(c2ccc(OCCCO)cc2)O[C@@H]1c1ccccc1` ?
A: 0.758

Q: Please report the recorded composite z-score for `CN(C)C(=O)[C@]1(Cc2ccccc2CN=[N+]=[N-])N=C(c2ccc(OCCCO)cc2)O[C@@H]1c1ccccc1CN=[N+]=[N-]` .
A: 0.545

Q: Need composite z-score of `[N-]=[N+]=NCc1ccccc1C[C@]1(C(=O)O)N=C(c2ccc(OCCCO)cc2)O[C@H]1c1ccccc1N=[N+]=[N-]` , thanks.
A: 0.55

Q: Can you look up the measured composite z-score of CN1C(=O)C2C=CC(C(O)C3CCCCC3)N(Nc3ccc([N+](=O)[O-])cc3[N+](=O)[O-])C2C1=O (stereo not given) for me?
A: 0.732

Q: # lookup: composite z-score of `O=C1c2ccccc2[C@](Cc2ccccc2I)(C(=O)NC2CC2)[C@H](c2ccc(CO)cc2)N1Cc1ccccc1`
A: 0.711

Q: State the recorded composite z-score for this entry: C=CCN(Cc1ccccc1)C(=O)C(c1cccs1)N(CCOCCO)C(=O)/C=C\C(=O)O (stereo not given)
A: 0.39

Q: Consider the compound `C=C[C@H](COC(C)=O)N(C(=O)OC(C)(C)C)S(=O)(=O)c1ccc(Br)cc1` and give its measured composite z-score.
A: 0.162

* * *

- Tested on: Sonic hedgehog protein (Shh)
- protocol text: small-molecule binders of Shh protein, primary screen, biochemical, small-molecule microarray, 635/667 nm fluorescence (AID 1151);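 also: Shh protein binding to compounds spotted on small-molecule microarray slides; score combines spot fluorescence intensity with signal-to-noise across triplicate slides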
- assay context: small-molecule microarray binding, 635 nm fluorescence; higher = more signal
Assign fulfilled whenever composite z-score does not fall below -0.9; assign not fulfilled whenever it does.

Q: Given the entry `NCCCCCNC(=O)[C@@H]1C[C@@H]2C(=O)N[C@@H](Cc3ccccc3)C(=O)N2[C@@H]1c1cccc(OCCO)c1` , answer whether its composite z-score meets or surpasses -0.9.
A: fulfilled

Q: Given the entry COc1cc2c(cc1O)C(C1CC1)N(Cc1cc3c(cc1Br)OCO3)CC2 (stereo unspecified) , answer whether its composite z-score meets or surpasses -0.9.
A: not fulfilled

Q: Hi, just wondering whether `COC(=O)[C@@]1(Cc2ccccc2)[C@H]2c3cc(C(=O)N(C)C)n(CCSCCO)c3C[C@H]2CN1C(=O)c1ccccc1` shows composite z-score of -0.9 or higher.
A: not fulfilled

Q: Exam item: decide whether the reported composite z-score for `CCc1oc(CC[C@@H](CO)NC(=O)NCCn2cc(C3(O)CCCCC3)nn2)c(C(=O)OC)c1C(=O)OC` is at least -0.9.
A: fulfilled

Q: Check the entry `COCCOC(=O)N1C(=O)[C@@]2(c3cc(C#CCCO)ccc31)[C@H](c1ccc(OCCO)cc1)N1[C@H](c3ccccc3)[C@H](c3ccccc3)OC(=O)[C@H]1[C@@H]2C(=O)N1CCN(c2ncccn2)CC1` : does composite z-score equal or exceed -0.9?
A: fulfilled

Q: Tell me whether composite z-score is at least -0.9 here: O=C1NC(=O)C2C1C=CC(C(O)C(c1ccccc1)c1ccccc1)N2Nc1ccc(Cl)cc1Cl (stereo unspecified)
A: fulfilled
